Molecular target: T1, MHC class I allele A*0101 monomer (human, biotinylated, bound to streptavidin-coated plate)
T1 construct: placeholder peptide and b2M removed, then reconstituted with test peptide and fresh b2M; also called A1; HLA-A1
Experiment: iTopia, multiparametric iScore
Method: The 9 mers were tested for Peptide Binding, Off Rate and Affinity using iTopia Epitope Discovery System in accordance with the manufacturer's instructions. Briefly, 96 well microtitre plates coated with MHC molecules representing different MHC alleles are used to identify candidate peptides. […] Determinations are performed in duplicate using an ELISA plate reader and included allele specific positive controls. […]
What iScore was measured for each of the following?
Enter the number alone.

// lookup iScore for HMEGYHYRY [5T4 9-mer peptide 198]
0.357

# lookup: iScore of VPTDLPAYV [5T4 9-mer peptide 43]
0.098

Quick check: iScore of LTCAYPEKM [5T4 9-mer peptide 161] ?
0.139

GET /values?readout=iScore&item= LASNHFLYL [5T4 9-mer peptide 109]
0.12

Suppose we examine the binder LTYVSFRNL [5T4 9-mer peptide 125] ; what iScore value has been reported?
0.522
